test system: HPPD polypeptides (wild-type SEQ ID NO:1 and mutants); conditions: total change in signal in presence of 50 μM Cmpd. 1, normalised to that without inhibitor; low substrate concentration
property: Residual turnover (%)
Give the value in % but do not write % after it.

Input line: Recorded Residual turnover for 56 (protein, mutant HPPD polypeptide) MADLYENPMGLMGFEFIEFASPTPGTLEPIFEIMGFTKVATHRSKNVHLYRQGEINLILNNEPNSIASYFAAEHGPSVCGMAFRVKDSQKAYNRALELGAQPIHIDTGPMELNLPAIKGIGGAPLYLIDRFGEGSSIYDIDFVYLEGVERNPVGAGLKVIDHLTHNVYRGRMVYWANFYEKLFNFREARYFDIKGEYTGLTSKAMSAPDGMIRIPLNEESSKGAGQIEEFLMQFNGEGIQHVAFLTDDLVKTWDALKKIGMRFMTAPGDEYYEMLEGRLPDHGEPVDQLQARGILLDGSSVEGDKRLLLQIFSETLMGPVFFEFIQRKGDDGFGPDSFRVLFESVERDQVRRGVLTAD , please?
Output line: 59
